test: Distribution coefficient (log D6.8), pH 6.8 isotonic phosphate buffer/n-octanol
Format: physicochemical
details: n-octanol/pH 6.8 isotonic phosphate buffer; 1-octanol/isotonic phosphate buffer (pH 6.8)
measuredMetric: logD

>>> df
                                   molecule  assayresult
0        O=C(O)c1cc(N=Nc2cccc3cnccc23)ccc1O         0.31
1  O=C(O)CC[C@H](NC(=O)c1cc(/N=N/c2cccc3cnccc23)ccc1O)C(=O)O        -1.83
2    NC(=O)c1cccc(N=Nc2ccc(O)c(C(=O)O)c2)c1        -1.07
3  O=C(O)C[C@H](NC(=O)c1cc(/N=N/c2cccc3cnccc23)ccc1O)C(=O)O        -1.77
4  NC(=O)c1cccc(N)c1 [3-AB, 3-aminobenzamide, reference compound]         0.33
5  Nc1cccc2cnccc12 [5-AIQ, 5-aminoisoquinoline, reference compound]         3.16
